pIC50: −log10 of the molar value.
Listing of pIC50 toward human MEK1 (Homo sapiens), each taken from a published source.
Cut-off 7 on pIC50, inclusive. At or above means condition met; below means condition not met.

structure_smiles_string	category
O=C(NO)c1ccc([N+](=O)[O-])cc1Nc1ccc(I)cc1Cl	condition met
Cc1cc(I)ccc1Nc1c(C(=O)NOC2CCC2)ccc(F)c1F	condition met
COc1ccc(-c2coc3ccc(-c4nnc(SC)o4)cc23)cc1	condition not met
O=C(NOCCO)c1c(Nc2ccc(I)cc2F)sc2ncc(F)cc12	condition not met
Cc1cc(I)ccc1Nc1c(C(=O)NO)ccc(F)c1F	condition met
CONC(=O)c1ccc(F)cc1Nc1ccc(I)cc1C	condition not met
O=C(NOCCO)c1cc(/C=N/OCCN2CCC[C@H]2CO)c(F)c(F)c1Nc1ccc(I)cc1F	condition not met

# bool: pIC50 of "C=C(C)CONC(=O)c1ccc(F)cc1Nc1ccc(I)cc1C" >= 7
condition met

###

Listing of IC50 toward human MEK1 (Homo sapiens), each taken from a published source.

Known IC50 results, listed for orientation:
structure_smiles_string	IC50
Cc1cc(I)ccc1Nc1c(C(=O)NOC(C)C)ccc(F)c1F	87 nM
CCS(=O)(=O)Nc1cccc(Oc2cc(F)cc(Nc3ccc(I)cc3F)c2C(N)=O)c1	< 300 nM
N#Cc1ccc(C(=O)NOCC2CC2)c(Nc2ccc(I)cc2F)c1	150 to 1500 nM
NC(=O)c1c(Nc2ccc(I)cc2F)cc(F)cc1OCC1CNC1	< 250 nM
CONC(=O)c1ccncc1Nc1ccc(I)cc1Cl	< 1000 nM
CNC(=O)CO/N=C/c1cc(C(=O)NOCCO)c(Nc2ccc(I)cc2F)c(F)c1F	119 nM
CC(=O)c1sc(Nc2ccc(I)cc2F)c(C(=O)NC[C@H](O)CO)c1C	150 to 1500 nM
CS(=O)(=O)Nc1cccc(Oc2cc(F)cc(Nc3ccc(I)cc3F)c2C(N)=O)c1	< 250 nM

// moving on: another record for IC50
Value lookup for IC50; key = "CONC(=O)c1ccc(F)c(F)c1Nc1ccc(I)cc1C"
61 nM

###

Listing of IC50 toward human MEK1 (Homo sapiens), each taken from a published source.
Numbers only, in nM.

Known IC50 results, listed for orientation:
compound	test_target	display_unit	IC50
Cn1c(Nc2ccc(I)cc2F)c(C(N)=O)c2cccnc21	human MEK1 (Homo sapiens)	nM	9610
Cc1cc(I)ccc1Nc1cc(F)ccc1C(=O)NO	human MEK1 (Homo sapiens)	nM	7
Cc1cc(I)ccc1Nc1c(C(=O)NOCc2ccoc2)ccc(F)c1F	human MEK1 (Homo sapiens)	nM	14

Dear colleague, could you please provide IC50 for the compounds listed below?
1. O=C(N[C@@H]1CCC[C@@H](O)[C@H]1O)c1cc(Cl)ncc1Nc1ccc(I)cc1F (racemic)
2. Cc1cc(I)ccc1Nc1cc(F)ccc1C(=O)NOCC1CC1

1. 34.5
2. 47

###

Listing of IC50 toward human MEK1 (Homo sapiens), each taken from a published source.

structure_smiles_string	test_target	reported_value
O=C(NNc1ccccc1)c1ccncc1Nc1ccc(I)cc1F	human MEK1 (Homo sapiens)	< 1 µM
O=C(NOCCO)c1cc(/C=N/OCCN2CCNC2=O)c(F)c(F)c1Nc1ccc(I)cc1F	human MEK1 (Homo sapiens)	0.203 µM
O=C(CNCCONC(=O)c1ccc(F)c(F)c1Nc1ccc(I)cc1F)NCCCCCC(=O)N1CCN(c2nc(N3CCOCC3)nc(-n3c(C(F)F)nc4ccccc43)n2)CC1	human MEK1 (Homo sapiens)	0.0005 µM
COc1cnc2sc(Nc3ccc(I)cc3F)c(C(=O)NOCCO)c2c1	human MEK1 (Homo sapiens)	0.15 µM

// moving on: another record for IC50
Value lookup for IC50; key = "O=C(CCBr)c1c[nH]c2ncccc12"
≤ 10 µM

###

Listing of IC50 toward human MEK1 (Homo sapiens), each taken from a published source.

Known IC50 results, listed for orientation:
structure_smiles_string	measured_attribute	reported_value
CS(=O)(=O)Nc1ccc(F)c(C(=O)c2c[nH]c3ncc(-c4cccnc4)cc23)c1	IC50	≤ 10000 nM
O=C(c1ccncc1Nc1ccc(I)cc1F)N1CCOCC1	IC50	< 1000 nM
COc1cccc(C(=O)NNC(=O)c2ccncc2Nc2ccc(I)cc2F)c1	IC50	< 1000 nM
Cn1c(Nc2ccc(I)cc2F)c(NS(=O)(=O)C2CC2)ccc1=O	IC50	9.9 nM

Dear colleague, could you please provide IC50 for the compounds listed below?
1. O=C(N[C@@H]1CCC[C@@H](O)[C@H]1O)c1ccncc1Nc1ccc(I)cc1F
2. Nc1ccnc2[nH]cc(C(=O)c3ccccc3)c12
3. Cc1ccc(NNC(=O)c2ccncc2Nc2ccc(I)cc2F)cc1
4. Cc1cc(I)ccc1Nc1cc(C#N)ccc1C(=O)NOCCO

["133 nM", "≤ 10000 nM", "< 1000 nM", "150 to 1500 nM"]

###

Listing of IC50 toward human MEK1 (Homo sapiens), each taken from a published source.

Known IC50 results, listed for orientation:
compound	test_target	measured_attribute	reported_value
C#CCONC(=O)c1ccc(F)c(F)c1Nc1ccc(I)cc1C	human MEK1 (Homo sapiens)	IC50	15 nM
Cc1cc(Br)ccc1Nc1cc(=O)n(C)cc1C(=O)NO	human MEK1 (Homo sapiens)	IC50	≤ 1000 nM
Cc1cc(I)ccc1Nc1c(C(=O)NOC2CCCCO2)cc(Br)c(F)c1F (stereo not shown)	human MEK1 (Homo sapiens)	IC50	47 nM

Dear colleague, could you please provide IC50 for the compounds listed below?
1. COc1ccccc1CCNC(=O)c1ccncc1Nc1ccc(I)cc1F
2. O=C(NCc1cccc(O)c1)c1ccncc1Nc1ccc(I)cc1F
3. O=C1c2c(cncc2Nc2ccc(I)cc2F)CCN1OCCO
4. CN(C)S(=O)(=O)Nc1cccc(Oc2cc(F)cc(Nc3ccc(I)cc3F)c2C#N)c1
5. Cc1cc(Br)ccc1Nc1cc(=O)n(C)cc1C(=O)NOC[C@@H](O)CO

1. < 1000 nM
2. < 1000 nM
3. 150 to 1500 nM
4. < 1000 nM
5. ≤ 1000 nM

Dear colleague, could you please provide IC50 for the compounds listed below?
1. C#Cc1ccc(Nc2cnccc2C(=O)NOC[C@H](O)CO)c(Cl)c1
2. C#CC(C)ONC(=O)c1ccc(F)c(F)c1Nc1ccc(Br)cc1C (stereo not shown)

1: 1000 to 10000 nM; 2: 728 nM

###

Listing of IC50 toward UniProtKB Q02750, each taken from a published source.

Known IC50 results, listed for orientation:
compound	IC50
O=C(NOCCO)c1cc(/C=N/OCCO)c(F)c(F)c1Nc1ccc(I)cc1F	100 nM
Cc1cc(I)ccc1Nc1cc2nnc(C)n2cc1C(=O)NOC[C@H](O)CO	≤ 1000 nM
CC(=O)c1sc(Nc2ccc(I)cc2F)c(C(=O)NOCCO)c1C	150 to 1500 nM
O=C(CO/N=C/c1cc(C(=O)NOCCO)c(Nc2ccc(I)cc2F)c(F)c1F)NCCO	267 nM
COCCNC(=O)c1cc(Br)ncc1Nc1ccc(I)cc1F	< 1000 nM
Cc1cc(Br)ccc1Nc1cc2nnc(C)n2cc1C(=O)NO	≤ 1000 nM

Dear colleague, could you please provide IC50 for the compounds listed below?
1. C#CCCONC(=O)c1ccc(F)c(F)c1Nc1ccc(I)cc1C
2. CNC(=O)CO/N=C\c1cc(C(=O)NOCCO)c(Nc2ccc(I)cc2F)c(F)c1F
3. O=C(NOCc1ccccc1)c1ccncc1Nc1ccc(I)cc1F
4. Cc1cc(I)ccc1Nc1c(C(=O)NOCc2cccs2)ccc(F)c1F
5. O=C(N[C@@H]1CCC[C@@H](O)[C@H]1O)c1c(F)cncc1Nc1ccc(I)cc1F (racemic)
6. O=C(NOCCO)c1cc(/C=N/OCc2ccncc2)c(F)c(F)c1Nc1ccc(I)cc1F
7. O=C(NOCC1CC1)c1cc(Br)c(F)c(F)c1Nc1ccc(I)cc1Cl
8. CCONC(=O)c1ccncc1Nc1ccc(I)cc1C

1: 76 nM; 2: 49 nM; 3: < 1000 nM; 4: 19 nM; 5: 74 nM; 6: 88 nM; 7: < 10 nM; 8: < 1000 nM

Dear colleague, could you please provide IC50 for the compounds listed below?
1. C=C(C)CONC(=O)c1ccc(F)c(F)c1Nc1ccc(I)cc1C
2. CC(C)C(C)NC(=O)c1ccncc1Nc1ccc(I)cc1F (centres unmarked)
3. NC(=O)c1c(Nc2ccc(I)cc2F)cc(F)cc1OC[C@H](O)[C@@H](O)CO
4. CCONC(=O)c1ccncc1Nc1ccc(Br)cc1F
5. Cc1cc(Br)ccc1Nc1cc2nnc(C)n2cc1C(=O)NOC[C@@H](O)CO
6. CC(C)(C)ONC(=O)c1ccncc1Nc1ccc(I)cc1Cl
7. Cn1c(Nc2ccc(I)cc2F)c(NS(=O)(=O)C2(CC(O)CO)CC2)ccc1=O (single isomer, unassigned)
8. Cc1nccc(C(N)=O)c1Nc1ccc(I)cc1F

1: 16 nM; 2: < 1000 nM; 3: < 250 nM; 4: < 1000 nM; 5: 1000 to 10000 nM; 6: < 1000 nM; 7: 10.4 nM; 8: < 1000 nM

Value lookup for IC50; key = "COCCNC(=O)c1ccncc1Nc1ccc(I)cc1F"
< 1000 nM
